Test system: EKVX NSCLC
Assay Info: NCI-60 one-dose screen, 48 h (100 = growth as untreated, 0 = no growth, -100 = all killed)
Condition Description: 10 µM unless noted
Compounds without any hit were thinned out: in the full panel of roughly 83,000, 20% have a hit.

Compound	Units Label	growth
Cc1[nH]c2ncnc(Oc3ccc(NC(=O)Nc4ccc(Cl)c(C(F)(F)F)c4)cc3)c2c1C	%	43
COc1cc(-c2nn(-c3ccc(Br)cc3)cc2CO)ccc1O	%	92.5
CCCCc1nc(Cl)c(C2CC(c3ccc(Cl)cc3)=NN2c2cc(Cl)cc(Cl)c2)[nH]1 (stereo not given)	%	57.8
CC[C@H](Nc1ncnc2nc[nH]c12)c1nc2cccc(CC(=O)c3ccc(C(=O)NO)cc3)c2c(=O)n1-c1ccccc1	%	90.6
O=S(=O)(O)c1ccc(N=NSc2ccc3ccccc3c2)cc1	%	99.4
COc1cc(/C=N/Nc2nc(-c3ccc(F)cc3)c(C#N)c(N3CCOCC3)n2)ccc1O	%	90.5
CCCCc1ccc(N=Nc2ccc(OCC[N+](C)(C)C)cc2)cc1	%	85.1
CO[C@@]12C=C[C@@]34CCC(=O)N3c3ccccc3[C@@H](O1)C4C2	%	98.8
O=C(O)c1ccc(-n2cc(/C=N/Nc3ccc(Cl)cc3Cl)c(-c3ccccc3)n2)cc1	%	77
CCOC(=O)c1c(C)nc2c(c1N)/C(=C/c1cccs1)C(=O)N2Cc1ccccc1	%	82
COC(=O)CCc1cc(O)c2c(c1)[C@@H](C(=O)OC)[C@H](c1ccc(O)c(O)c1)O2	%	87.7
C=C(C)[C@@H]1CC[C@]2(C(=O)OCCCC[P+](c3ccccc3)(c3ccccc3)c3ccccc3)CC[C@]3(C)[C@H](CC[C@@H]4[C@@]5(C)CC[C@H](OC(=O)C(Cl)Cl)C(C)(C)[C@@H]5CC[C@]43C)[C@@H]12	%	-13.3
CCOc1ccccc1C(=O)/C=C/c1cc2ccccc2[nH]c1=O	%	-1.6
N#CC(C#N)=C1NC(c2ccccc2)=C(c2ccccc2)C(c2ccccc2Cl)=C1C#N	%	97.6
COc1ccc(/C(=N\O)c2cc(C)c(OC)c(C)c2)cc1O	%	51.7
CCOC(=O)/C=C1\SC(=Nc2ccc(C#N)cc2)N(CCN2C(=O)/C(=C/C(=O)OCC)SC2=Nc2ccc(C#N)cc2)C1=O	%	35.2
Cc1cc(Cl)cc(CN(Cc2ccccc2)Cc2c(O)ccc3ccccc23)c1O	%	99
COc1ccc(C2C(c3ccccc3)C(=O)N2c2cc(OC)c(OC)c(OC)c2)cc1I (stereo not given)	%	61.9
COc1c(O)cc2oc3cc(O[C@@H]4OC(C)[C@@H](O)[C@H](O)C4O)c(CC=C(C)C)c(O)c3c(=O)c2c1CC=C(C)C (stereo not given in full)	%	82
COc1cc(N=Nc2cc(S(=O)(=O)O)cc3cc(S(=O)(=O)O)cc(O)c23)c(C)cc1N=Nc1c(S(=O)(=O)O)cc2cc(Nc3ccccc3)ccc2c1O	%	107
